target: BTK (Homo sapiens); assay: Degradation of BTK protein in Namalwa cells (Western blot; DC50, Dmax); settings: read-out: Dmax (BTK degradation)
Observable: Dmax

Below: 3 molecules and their reported Dmax.
[
  {
    "Molecule": "NC(=O)c1c(-c2ccc(Oc3ccccc3)cc2)nn2c1NCC[C@H]2C1CCN(CC2CCN(C(=O)N3CCN(Cc4ccc5c(c4)C(=O)N(C4CCC(=O)NC4=O)C5=O)CC3)CC2)CC1 (some centres unmarked)",
    "Dmax": "> 50%"
  },
  {
    "Molecule": "NC(=O)c1c(-c2ccc(Oc3ccccc3)cc2)nn2c1NCC[C@H]2C1CCN(CC2CCN(C(=O)N3CCN(CC4CCN(c5ccc6c(c5)CN(C5CCC(=O)NC5=O)C6=O)CC4)CC3)CC2)CC1 (some centres unmarked)",
    "Dmax": "> 90%"
  },
  {
    "Molecule": "Nc1ncnc2c1c(-c1ccc(Oc3ccccc3)cc1)nn2C1CCN(CCOCCOCCN2CC=C(c3ccc4c(c3)CN(C3CCC(=O)NC3=O)C4=O)CC2)CC1 (centres unmarked)",
    "Dmax": "> 75%"
  }
]

Tell me the measured Dmax of Nc1ncnc2c1c(-c1ccc(Oc3ccccc3)cc1)nn2C1CCN(C(=O)C2CC(N3CCN(c4ccc5c(c4)CN(C4CCC(=O)NC4=O)C5=O)CC3)C2)CC1 (centres unmarked) , please.
> 90%

Can you handle Nc1ncnc2c1c(-c1ccc(Oc3ccccc3)cc1)nn2[C@@H]1CCCN(C2CCN(C(=O)NC3CCC(=O)NC3=O)CC2)C1 (some centres unmarked) next?
> 75%

Further, for Nc1ncnc2c1c(-c1ccc(Oc3ccccc3)cc1)nn2C1CCN(C[C@@H]2CCN(CC3CCN(c4ccc5c(c4)CN(C4CCC(=O)NC4=O)C5=O)CC3)C2)CC1 (some centres unmarked) [Compound 446b] ?
> 90%

----------
biological target: BTK (Homo sapiens, UniProt Q06187); experiment: BTK degradation, DC50 and Dmax of Table 1 (cell line not given); format: cell-based; set-up: endogenous in cells; settings: concentration giving 50% reduction of BTK expression level
Sequence (Q06187 whole entry): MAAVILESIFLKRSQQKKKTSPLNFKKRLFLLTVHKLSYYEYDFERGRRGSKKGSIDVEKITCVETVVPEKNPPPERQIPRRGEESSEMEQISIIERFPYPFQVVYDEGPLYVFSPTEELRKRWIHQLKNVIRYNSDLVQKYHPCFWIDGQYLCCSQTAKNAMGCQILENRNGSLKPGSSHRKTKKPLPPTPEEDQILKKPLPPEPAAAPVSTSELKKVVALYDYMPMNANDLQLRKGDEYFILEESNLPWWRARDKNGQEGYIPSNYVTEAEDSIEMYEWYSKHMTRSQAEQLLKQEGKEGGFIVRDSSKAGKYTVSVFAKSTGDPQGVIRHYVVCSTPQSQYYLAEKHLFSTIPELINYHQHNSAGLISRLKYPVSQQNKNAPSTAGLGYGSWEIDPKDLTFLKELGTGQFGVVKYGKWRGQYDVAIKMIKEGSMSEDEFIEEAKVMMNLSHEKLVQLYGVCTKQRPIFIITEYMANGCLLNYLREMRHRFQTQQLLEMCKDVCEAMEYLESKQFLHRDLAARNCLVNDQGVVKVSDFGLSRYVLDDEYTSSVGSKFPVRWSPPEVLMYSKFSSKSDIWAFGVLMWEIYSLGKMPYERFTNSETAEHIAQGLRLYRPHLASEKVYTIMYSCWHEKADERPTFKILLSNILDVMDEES
Observable: DC50

See these solved cases before continuing.
[
  {
    "Molecule": "Nc1ncnc2c1c(-c1ccc(Oc3ccccc3)cc1)nn2[C@@H]1CCCN(CC2CCN(CCCN3CCC(c4ccc5c(c4)CN(C4CCC(=O)NC4=O)C5=O)CC3)CC2)C1 (stereo partly drawn)",
    "DC50": "0.01 to 0.05 µM"
  },
  {
    "Molecule": "Nc1ncnc2c1c(-c1ccc(Oc3ccccc3)cc1)nn2[C@@H]1CCCN(CC2CCN(CCCC3CCN(c4ccc5c(c4)C(=O)N(C4CCC(=O)NC4=O)C5=O)CC3)CC2)C1 (stereo partly drawn)",
    "DC50": "> 0.05 µM"
  }
]

Consider the additional molecule presented here.
DC50 lookup needed for Nc1ncnc2c1c(-c1ccc(Oc3ccccc3)cc1)nn2C1CCN(C(=O)N2CCN(CC3CCN(c4ccc5c(c4)CN(C4CCC(=O)NC4=O)C5=O)CC3)CC2)CC1 (stereo not drawn) , thanks.
0.01 to 0.05 µM

----------
biological target: UniProt:Q06187; assay: Degradation of BTK protein in Namalwa cells (Western blot; DC50, Dmax); conditions: BTK degradation; cell line not given
Observable: DC50

[
  {
    "Compound": "NC(=O)c1c(-c2ccc(Oc3ccccc3)cc2)nn2c1NCC[C@H]2C1CCN(C(=O)N2CCN(CCN3CCN(c4ccc5c(c4)CN(C4CCC(=O)NC4=O)C5=O)CC3)CC2)CC1 (some centres unmarked)",
    "Data value": "10 to 50 nM"
  }
]

Give its DC50 value. Item: Nc1ncnc2c1c(-c1ccc(Oc3ccccc3)cc1)nn2C1CCN(C2CCN(C(=O)N3CCN(CCN4CCN(c5ccc6c(c5)C(=O)N(C5CCC(=O)NC5=O)C6=O)CC4)CC3)CC2)CC1 (centres unmarked)
10 to 50 nM

Same question, NC(=O)c1c(-c2ccc(Oc3ccccc3)cc2)nn2c1NCCC2C1CCN(CC2CCN(C(=O)N3CCC(CN4CCC(c5ccc6c(c5)CN(C5CCC(=O)NC5=O)C6=O)CC4)CC3)CC2)CC1 (centres unmarked) this time
10 to 50 nM

Another compound to look at: Nc1ncnc2c1c(-c1ccc(Oc3ccccc3)cc1)nn2C1CCN(C2CCN(C(=O)N3CCC(c4ccc5c(c4)CN(C4CCC(=O)NC4=O)C5=O)CC3)CC2)CC1 (centres unmarked)
> 50 nM

For NC(=O)c1c(-c2ccc(Oc3ccccc3)cc2)nn2c1NCC[C@H]2C1CCN(C2CCN(C(=O)N3CCN(C4CCN(c5ccc6c(c5)CN(C5CCC(=O)NC5=O)C6=O)CC4)CC3)CC2)CC1 (some centres unmarked) then?
< 10 nM

Please do the same for NC(=O)c1c(-c2ccc(Oc3ccccc3)cc2)nn2c1NCCC2C1CCN(C(=O)N2CCN(CC3CCN(c4ccc5c(c4)C(=O)N(C4CCC(=O)NC4=O)C5=O)CC3)CC2)CC1 (centres unmarked) as well.
10 to 50 nM

And the next one, Nc1ncnc2c1c(-c1ccc(Oc3ccccc3)cc1)nn2C1CCN(C2CCN(C(=O)N3CCN(CC4CCN(c5ccc6c(c5)CN(C5CCC(=O)NC5=O)C6=O)CC4)CC3)CC2)CC1 (centres unmarked) ?
< 10 nM

Record: NC(=O)c1c(-c2ccc(Oc3ccccc3)cc2)nn2c1NCC[C@H]2C1CCN(CCOCCOCCN2CCN(c3ccc4c(c3)C(=O)N(C3CCC(=O)NC3=O)C4=O)CC2)CC1 (some centres unmarked)
10 to 50 nM

Cool, now Nc1ncnc2c1c(-c1ccc(Oc3ccccc3)cc1)nn2C1CCN(C2CCN(C(=O)N3CCC(CCN4CCC(c5ccc6c(c5)CN(C5CCC(=O)NC5=O)C6=O)CC4)CC3)CC2)CC1 (centres unmarked)
< 10 nM

What about NC(=O)c1c(-c2ccc(Oc3ccccc3)cc2)nn2c1NCCC2C1CCN(C(=O)N2CCN(CCC3CCN(c4ccc5c(c4)C(=O)N(C4CCC(=O)NC4=O)C5=O)CC3)CC2)CC1 (centres unmarked) ?
10 to 50 nM

Record: NC(=O)c1c(-c2ccc(Oc3ccccc3)cc2)nn2c1NCCC2C1CCN(C2CCN(CCC3CCN(c4ccc5c(c4)CN(C4CCC(=O)NC4=O)C5=O)CC3)CC2)CC1 (centres unmarked)
10 to 50 nM

Nc1ncnc2c1c(-c1ccc(Oc3ccccc3)cc1)nn2C1CCN(C2CCN(C(=O)N3CCC(CCN4CCN(c5ccc6c(c5)CN(C5CCC(=O)NC5=O)C6=O)CC4)CC3)CC2)CC1 (centres unmarked) ?
10 to 50 nM
